Data provenance is patent US10899793B2.

Target: UniProt:P56450
Sequence (P56450 whole entry): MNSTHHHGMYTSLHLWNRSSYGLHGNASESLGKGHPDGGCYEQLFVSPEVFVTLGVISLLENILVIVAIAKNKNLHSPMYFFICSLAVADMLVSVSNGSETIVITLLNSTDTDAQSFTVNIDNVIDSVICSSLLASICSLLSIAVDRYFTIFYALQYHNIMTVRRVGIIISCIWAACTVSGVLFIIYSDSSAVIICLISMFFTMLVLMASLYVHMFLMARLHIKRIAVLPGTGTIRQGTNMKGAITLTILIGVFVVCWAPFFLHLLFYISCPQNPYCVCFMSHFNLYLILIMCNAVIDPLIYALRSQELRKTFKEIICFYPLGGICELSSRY
Details: Table 1; Schild analysis, pA2 = -Log(Ki)
Square brackets hold non-standard residues; d marks the D form. Peptide text beside a SMILES is read from it. Bip = N[C@@H](Cc1ccc(-c2ccccc2)cc1)C(=O)O; dPhe(4-I) = N[C@H](Cc1ccc(I)cc1)C(=O)O; 2Nal = N[C@@H](Cc1ccc2ccccc2c1)C(=O)O; d2Nal = N[C@H](Cc1ccc2ccccc2c1)C(=O)O; Bta = N[C@@H](Cc1csc2ccccc12)C(=O)O
metric.name: mMC4R Antagonist pA2 ± SEM

See these solved cases before continuing.
compound	mMC4R Antagonist pA2 ± SEM
CC(=O)N[C@@H](Cc1ccc2ccccc2c1)C(=O)N[C@@H](CCCNC(=N)N)C(=O)N[C@H](Cc1ccc(I)cc1)C(=O)N[C@H](Cc1ccc2ccccc2c1)C(N)=O [SKY4-48-48, Ac-Nal(2′)-Arg-(pI)DPhe-DNal(2′)-NH2] (Ac-[2Nal]R[dPhe(4-I)][d2Nal]-NH2)	No Activity
CC(=O)N[C@@H](Cc1csc2ccccc12)C(=O)N[C@@H](CCCNC(=N)N)C(=O)N[C@H](Cc1ccc(I)cc1)C(=O)N[C@@H](Cc1ccccc1)C(N)=O [SKY5-146-4, Ac-3Bal-Arg-(pI)DPhe-Phe-NH2] (Ac-[Bta]R[dPhe(4-I)]F-NH2)	No Activity
CC(=O)N[C@@H](Cc1ccc(-c2ccccc2)cc1)C(=O)N[C@@H](CCCNC(=N)N)C(=O)N[C@H](Cc1ccc(I)cc1)C(=O)N[C@H](Cc1ccc2ccccc2c1)C(N)=O [SKY4-48-44, Ac-Bip-Arg-(pI)DPhe-DNal(2′)-NH2] (Ac-[Bip]R[dPhe(4-I)][d2Nal]-NH2)	No Activity
CC(=O)N[C@@H](Cc1ccc(-c2ccccc2)cc1)C(=O)N[C@@H](CCCNC(=N)N)C(=O)N[C@H](Cc1ccc(I)cc1)C(=O)N[C@@H](Cc1ccc(-c2ccccc2)cc1)C(N)=O [SKY4-48-4, Ac-Bip-Arg-(pI)DPhe-Bip-NH2] (Ac-[Bip]R[dPhe(4-I)][Bip]-NH2)	No Activity

Now turn to the next compound.
Qu. Indicate its recorded mMC4R Antagonist pA2 ± SEM; the compound in question is CC(=O)N[C@@H](Cc1ccc2ccccc2c1)C(=O)N[C@@H](CCCNC(=N)N)C(=O)N[C@H](Cc1ccc(I)cc1)C(=O)N[C@@H](Cc1ccccc1)C(N)=O [SKY4-48-32, Ac-Nal(2′)-Arg-(pI)DPhe-Phe-NH2] (Ac-[2Nal]R[dPhe(4-I)]F-NH2)
Ans. No Activity

====

Molecular target: mMC5R (Mus musculus, UniProt P41149)
Sequence (P41149 whole entry): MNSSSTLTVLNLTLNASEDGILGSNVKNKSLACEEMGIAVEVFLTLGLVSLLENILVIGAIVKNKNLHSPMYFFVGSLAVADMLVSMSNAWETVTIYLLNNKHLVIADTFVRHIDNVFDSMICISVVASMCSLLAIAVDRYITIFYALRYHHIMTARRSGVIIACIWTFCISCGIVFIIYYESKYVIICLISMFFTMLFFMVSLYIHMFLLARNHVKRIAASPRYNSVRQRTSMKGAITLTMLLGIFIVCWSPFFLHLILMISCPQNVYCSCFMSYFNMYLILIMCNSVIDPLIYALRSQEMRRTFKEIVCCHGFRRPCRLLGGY
Experiment: AlphaScreen cAMP agonist assay at mMC5R
Conditions: read-out: percent of the NDP-MSH maximal positive control, Table 2
Square brackets hold non-standard residues; d marks the D form. Peptide text beside a SMILES is read from it. Bip = N[C@@H](Cc1ccc(-c2ccccc2)cc1)C(=O)O; dPhe(4-I) = N[C@H](Cc1ccc(I)cc1)C(=O)O; 2Nal = N[C@@H](Cc1ccc2ccccc2c1)C(=O)O; d2Nal = N[C@H](Cc1ccc2ccccc2c1)C(=O)O; Bta = N[C@@H](Cc1csc2ccccc12)C(=O)O; Tic = O=C(O)[C@@H]1Cc2ccccc2CN1
metric.name: activation at 100 µM (%)
Numbers only, in %.

See these solved cases before continuing.
compound	display.unit	recorded.result
CC(=O)N[C@@H](Cc1ccc2ccccc2c1)C(=O)N[C@@H](CCCNC(=N)N)C(=O)N[C@H](Cc1ccc(I)cc1)C(=O)N[C@H](Cc1ccc2ccccc2c1)C(N)=O [SKY4-48-48, Ac-Nal(2′)-Arg-(pI)DPhe-DNal(2′)-NH2] (Ac-[2Nal]R[dPhe(4-I)][d2Nal]-NH2)	%	40
CC(=O)N[C@H](Cc1ccc2ccccc2c1)C(=O)N[C@@H](CCCNC(=N)N)C(=O)N[C@H](Cc1ccc(I)cc1)C(=O)N[C@@H](Cc1ccc2ccccc2c1)C(N)=O [SKY5-146-5, Ac-DNal(2′)-Arg-(pI)DPhe-Nal(2′)-NH2] (Ac-[d2Nal]R[dPhe(4-I)][2Nal]-NH2)	%	40
CC(=O)N[C@@H](Cc1c[nH]cn1)C(=O)N[C@@H](CCCNC(=N)N)C(=O)N[C@H](Cc1ccc(I)cc1)C(=O)N[C@H](Cc1ccc2ccccc2c1)C(N)=O [SKY4-48-43, Ac-His-Arg-(pI)DPhe-DNal(2′)-NH2] (Ac-HR[dPhe(4-I)][d2Nal]-NH2)	%	47
CC(=O)N[C@@H](Cc1csc2ccccc12)C(=O)N[C@@H](CCCNC(=N)N)C(=O)N[C@H](Cc1ccc(I)cc1)C(=O)N[C@@H](Cc1ccccc1)C(N)=O [SKY5-146-4, Ac-3Bal-Arg-(pI)DPhe-Phe-NH2] (Ac-[Bta]R[dPhe(4-I)]F-NH2)	%	35
CC(=O)N[C@@H](Cc1ccc(-c2ccccc2)cc1)C(=O)N[C@@H](CCCNC(=N)N)C(=O)N[C@H](Cc1ccc(I)cc1)C(=O)N[C@@H](Cc1ccc2ccccc2c1)C(N)=O [SKY4-48-36, Ac-Bip-Arg-(pI)DPhe-Nal(2′)-NH2] (Ac-[Bip]R[dPhe(4-I)][2Nal]-NH2)	%	21
CC(=O)N[C@@H](Cc1ccccc1)C(=O)N[C@@H](CCCNC(=N)N)C(=O)N[C@H](Cc1ccc(I)cc1)C(=O)N[C@@H](Cc1ccc2ccccc2c1)C(N)=O [SKY4-48-39, Ac-Phe-Arg-(pI)DPhe-Nal(2′)-NH2] (Ac-FR[dPhe(4-I)][2Nal]-NH2)	%	61

Quick batch: activation at 100 µM for everything below.
1. CC(=O)N1Cc2ccccc2C[C@H]1C(=O)N[C@@H](CCCNC(=N)N)C(=O)N[C@H](Cc1ccc(I)cc1)C(=O)N[C@@H](Cc1ccccc1)C(N)=O [SKY4-48-30, Ac-Tic-Arg-(pI)DPhe-Phe-NH2] (Ac-[Tic]R[dPhe(4-I)]F-NH2)
2. CC(=O)N1Cc2ccccc2C[C@H]1C(=O)N[C@@H](CCCNC(=N)N)C(=O)N[C@H](Cc1ccc(I)cc1)C(=O)N[C@H](Cc1ccc2ccccc2c1)C(N)=O [SKY4-48-46, Ac-Tic-Arg-(pI)DPhe-DNal(2′)-NH2] (Ac-[Tic]R[dPhe(4-I)][d2Nal]-NH2)
3. CC(=O)N[C@@H](Cc1ccc(-c2ccccc2)cc1)C(=O)N[C@@H](CCCNC(=N)N)C(=O)N[C@H](Cc1ccc(I)cc1)C(=O)N[C@@H](Cc1ccccc1)C(N)=O [SKY4-48-28, Ac-Bip-Arg-(pI)DPhe-Phe-NH2] (Ac-[Bip]R[dPhe(4-I)]F-NH2)

Ans.
[21, 74, 69]

Quick batch: activation at 100 µM for everything below.
1. CC(=O)N1Cc2ccccc2C[C@H]1C(=O)N[C@@H](CCCNC(=N)N)C(=O)N[C@H](Cc1ccc(I)cc1)C(=O)N[C@@H](Cc1ccc2ccccc2c1)C(N)=O [SKY4-48-38, Ac-Tic-Arg-(pI)DPhe-Nal(2′)-NH2] (Ac-[Tic]R[dPhe(4-I)][2Nal]-NH2)
2. CC(=O)N[C@@H](Cc1ccccc1)C(=O)N[C@@H](CCCNC(=N)N)C(=O)N[C@H](Cc1ccc(I)cc1)C(=O)N[C@@H](Cc1ccccc1)C(N)=O [SKY4-48-31, Ac-Phe-Arg-(pI)DPhe-Phe-NH2] (Ac-FR[dPhe(4-I)]F-NH2)
3. CC(=O)N[C@@H](Cc1csc2ccccc12)C(=O)N[C@@H](CCCNC(=N)N)C(=O)N[C@H](Cc1ccc(I)cc1)C(=O)N[C@@H](Cc1ccc2ccccc2c1)C(N)=O [SKY4-48-37, Ac-3Bal-Arg-(pI)DPhe-Nal(2′)-NH2] (Ac-[Bta]R[dPhe(4-I)][2Nal]-NH2)
4. CC(=O)N[C@@H](Cc1ccccc1)C(=O)N[C@@H](CCCNC(=N)N)C(=O)N[C@H](Cc1ccc(I)cc1)C(=O)N[C@H](Cc1ccc2ccccc2c1)C(N)=O [SKY4-48-47, Ac-Phe-Arg-(pI)DPhe-DNal(2′)-NH2] (Ac-FR[dPhe(4-I)][d2Nal]-NH2)
5. CC(=O)N[C@H](Cc1ccc2ccccc2c1)C(=O)N[C@@H](CCCNC(=N)N)C(=O)N[C@H](Cc1ccc(I)cc1)C(=O)N[C@H](Cc1ccc2ccccc2c1)C(N)=O [SKY4-48-49, Ac-DNal(2′)-Arg-(pI)DPhe-DNal(2′)-NH2] (Ac-[d2Nal]R[dPhe(4-I)][d2Nal]-NH2)
6. CC(=O)N[C@@H](Cc1ccc2ccccc2c1)C(=O)N[C@@H](CCCNC(=N)N)C(=O)N[C@H](Cc1ccc(I)cc1)C(=O)N[C@@H](Cc1ccc2ccccc2c1)C(N)=O [SKY4-48-40, Ac-Nal(2′)-Arg-(pI)DPhe-Nal(2′)-NH2] (Ac-[2Nal]R[dPhe(4-I)][2Nal]-NH2)
7. CC(=O)N[C@@H](Cc1ccc(-c2ccccc2)cc1)C(=O)N[C@@H](CCCNC(=N)N)C(=O)N[C@H](Cc1ccc(I)cc1)C(=O)N[C@H](Cc1ccc2ccccc2c1)C(N)=O [SKY4-48-44, Ac-Bip-Arg-(pI)DPhe-DNal(2′)-NH2] (Ac-[Bip]R[dPhe(4-I)][d2Nal]-NH2)

Ans.
1. 48
2. 52
3. 50
4. 39
5. 43
6. 45
7. 55
